- Test system: SNU-398
- assayInfo: Induction of apoptosis in human SNU398 cells assessed as caspase activation by HTS assay
- Type: functional, cell-based
measuredMetric: EC50 (nM)

COc1ccc(C(OC)c2ccc(N(C)C)c3ccccc23)cc1 (centres undefined) : 760
CN(C)c1ccc(C(=O)c2ccc(N(C)C)c3ccccc23)cc1 : 44
CN(C)c1ccc(C(O)c2ccc(N(C)C)c3ccccc23)cc1 (centres undefined) : 520
COc1ccc(N(C)c2ccc(N)c3ccccc23)cc1 : 5300
COc1ccc(N(C)c2ccc([N+](=O)[O-])c3ccccc23)cc1 : 330

I = COc1ccc(C(=O)c2ccc(N(C)C)c3ccccc23)cc1OC
II = COc1cccc(N(C)c2ccc(N(C)C)c3ccccc23)c1
III = COc1ccc(C(=O)c2ccc(N(C)C)c3ccccc23)cc1
Problem: Put the entries in order of EC50, starting with the largest number. Please reply with the labels ordered as requested. Many thanks.
Result: II, I, III

###

- Tested on: T47D
- assayInfo: Cytotoxicity against human T47D cells
- Type: functional
measuredMetric: GI50 (nM)
Your answer is read as nM, so omit the unit and give the number.

COc1ccc(C(O)c2ccc(N(C)C)c3ccccc23)cc1 (centres undefined) : 230
COc1ccc(N(C)c2ccc(N(C)C)c3ccccc23)cc1 : 260

Problem: Look up and state reported GI50 for `COc1ccc(C(=O)c2ccc(N(C)C)c3ccccc23)cc1`
Result: 39

Problem: Look up and state reported GI50 for `CN(C)c1ccc(C(=O)c2ccc(N(C)C)c3ccccc23)cc1`
Result: 34
